Measured pEC50, listed per entry for reference.
# test_system: Peroxisome proliferator-activated receptor alpha (Homo sapiens)
# Sequence (Q07869 whole entry): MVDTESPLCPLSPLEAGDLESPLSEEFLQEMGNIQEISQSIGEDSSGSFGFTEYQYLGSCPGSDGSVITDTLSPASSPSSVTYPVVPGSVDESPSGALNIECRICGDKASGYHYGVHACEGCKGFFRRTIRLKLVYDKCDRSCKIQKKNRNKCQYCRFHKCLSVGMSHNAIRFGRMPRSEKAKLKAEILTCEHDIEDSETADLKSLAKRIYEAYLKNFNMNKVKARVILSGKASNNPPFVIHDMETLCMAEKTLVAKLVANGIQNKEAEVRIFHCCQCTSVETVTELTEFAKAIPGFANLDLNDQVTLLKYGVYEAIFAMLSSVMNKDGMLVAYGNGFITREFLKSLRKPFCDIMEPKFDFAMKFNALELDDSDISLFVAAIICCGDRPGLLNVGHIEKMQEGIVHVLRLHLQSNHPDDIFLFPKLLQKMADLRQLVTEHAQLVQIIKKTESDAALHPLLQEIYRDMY
# measurement_protocol: Agonist activity at human PPAR alpha by FRET assay
# Assay type: functional
pEC50: −log10 of the molar value.
metric_name: pEC50

| compound | test_system | relational_operator | quantitative_readout |
| --- | --- | --- | --- |
| CCOc1cc(C)ccc1OCCCOc1ccc2c(c1)CC[C@H]2CC(=O)O | Peroxisome proliferator-activated receptor alpha (Homo sapiens) | < | 5.00 |
| C=CCc1c(OCCCOc2ccc3c(c2)CC[C@H]3CC(=O)O)ccc2[nH]ccc12 | Peroxisome proliferator-activated receptor alpha (Homo sapiens) | < | 5.00 |
| CCCc1cc(-c2nc(CC(=O)O)cs2)ccc1OCCCOc1ccc2c(c1)CC[C@H]2CC(=O)O | Peroxisome proliferator-activated receptor alpha (Homo sapiens) | = | 5.61 |
| COc1ncc(-c2ccc(OCCCOc3ccc4c(c3)CC[C@H]4CC(=O)O)cc2)c(OC)n1 | Peroxisome proliferator-activated receptor alpha (Homo sapiens) | < | 5.00 |
| O=C(O)C[C@@H]1CCc2cc(OCCCOc3ccc4c(c3)ONC4(O)C(F)(F)F)ccc21 (some centres undefined) | Peroxisome proliferator-activated receptor alpha (Homo sapiens) | < | 5.00 |
| CCCc1cc(-c2nc(C)c(C(C)=O)s2)ccc1OCCCOc1ccc2c(c1)CC[C@H]2CC(=O)O | Peroxisome proliferator-activated receptor alpha (Homo sapiens) | = | 6.76 |
| Cc1cc(-c2nc(C(F)(F)F)ns2)ccc1OCCCOc1ccc2c(c1)CC[C@H]2CC(=O)O | Peroxisome proliferator-activated receptor alpha (Homo sapiens) | = | 6.28 |
| Cn1ccc2cc(OCCCOc3ccc4c(c3)CC[C@H]4CC(=O)O)ccc21 | Peroxisome proliferator-activated receptor alpha (Homo sapiens) | = | 5.17 |
| Cc1ccc(OCCCOc2ccc3c(c2)CC[C@H]3CC(=O)O)cc1C | Peroxisome proliferator-activated receptor alpha (Homo sapiens) | < | 5.00 |

* * *

# test_system: Peroxisome proliferator-activated receptor delta (Homo sapiens, UniProt Q03181)
# Sequence (Q03181 whole entry): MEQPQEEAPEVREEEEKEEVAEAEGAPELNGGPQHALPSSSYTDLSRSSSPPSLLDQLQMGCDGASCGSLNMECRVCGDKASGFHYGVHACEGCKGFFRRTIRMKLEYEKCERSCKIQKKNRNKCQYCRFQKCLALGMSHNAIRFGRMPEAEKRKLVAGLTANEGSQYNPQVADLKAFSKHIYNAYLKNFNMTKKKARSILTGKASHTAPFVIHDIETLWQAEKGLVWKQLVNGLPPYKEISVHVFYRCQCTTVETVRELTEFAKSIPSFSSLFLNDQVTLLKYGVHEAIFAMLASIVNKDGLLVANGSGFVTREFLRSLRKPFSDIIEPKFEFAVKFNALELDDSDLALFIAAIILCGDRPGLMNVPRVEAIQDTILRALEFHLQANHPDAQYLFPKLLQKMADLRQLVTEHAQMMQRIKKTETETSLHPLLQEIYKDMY
# measurement_protocol: Agonist activity at human PPAR delta by FRET assay
# Format: functional
# EC50 listing for each entry below

| compound | EC50 |
| --- | --- |
| Cc1nc(-c2ccc(OCCCOc3ccc4c(c3)CC[C@H]4CC(=O)O)cc2)sc1C | 2.9 nM |
| O=C(O)C[C@@H]1CCc2cc(OCCCOc3ccc(-n4cnnc4)cc3Cl)ccc21 | 2230 nM |
| O=C(O)C[C@@H]1CCc2cc(OCCCOc3ccc4c(c3)ONC4(O)C(F)(F)F)ccc21 (some centres undefined) | 67 nM |
| CCCc1cc(-c2nc3c(s2)CCC3)ccc1OCCCOc1ccc2c(c1)CC[C@H]2CC(=O)O | 3.5 nM |
| CCCc1cc(-c2nc(CC(=O)O)cs2)ccc1OCCCOc1ccc2c(c1)CC[C@H]2CC(=O)O | 4.6 nM |
| CCc1ccc(OCCCOc2ccc3c(c2)CC[C@H]3CC(=O)O)c(OC)c1 | 2.7 nM |
| Cc1cccc(-c2ccc(OCCCOc3ccc4c(c3)CC[C@H]4CC(=O)O)cc2)n1 | 2.2 nM |
| Cc1cccc(OCCCOc2ccc3c(c2)CC[C@H]3CC(=O)O)c1 | 56 nM |
| CCCc1cc(-c2nc(OC(C)C)cs2)ccc1OCCCOc1ccc2c(c1)CC[C@H]2CC(=O)O | 2.3 nM |
